The values you see were collected from ChEMBL document CHEMBL1126121.

molecular target: Thromboxane A2 receptor (Homo sapiens) (UniProt P21731); assay: Binding affinity for thromboxane A2 receptor by measuring its ability to displace [3H]U-46619 from guinea pig platelets at 0.1 uM; settings: Cavia porcellus, target entry is the homologue from another species
Could you label it satisfied if measured inhibition is 70% or higher, and not satisfied otherwise?

CCCCCC(=O)NCCSC1c2ccccc2COc2ccc(C(=O)O)cc21 (stereo not given); not satisfied
COc1cc(C(=O)NCCSC2c3ccccc3COc3ccc(C(=O)O)cc32)cc(OC)c1OC (stereo not given); not satisfied
O=C(O)c1ccc2c(c1)C(SCCNS(=O)(=O)c1cccnc1)c1ccccc1CO2 (stereo not given); not satisfied
COc1cccc(OC)c1C(=O)NCCSC1c2ccccc2COc2ccc(C(=O)O)cc21 (stereo not given); not satisfied

**Query** inhibition >= 70% for COc1ccccc1C(=O)NCCSC1c2ccccc2COc2ccc(C(=O)O)cc21 (stereo not given) ?
**Result** satisfied

**Query** Threshold query (inhibition >= 70%) on O=C(O)c1cccc(C(SCCNS(=O)(=O)c2ccccc2)c2ccccc2)c1 (stereo not given)
**Result** not satisfied

* * *

biological target: Thromboxane A2 receptor (Homo sapiens); experiment: Binding affinity for thromboxane A2 receptor by measuring its ability to displace [3H]U-46619 from guinea pig platelets at 0.1 uM; details: Cavia porcellus, target entry is the homologue from another species
readout label: inhibition (%)
Supply the numeric figure in %, leaving out any unit text.

**Query** # get_value(readout='inhibition', item= COc1ccc(S(=O)(=O)NCCSC2c3ccccc3COc3ccc(C(=O)O)cc32)cc1OC (centres undefined) )
**Result** 49

**Query** Could you share which inhibition value was measured for Cc1ccc2c(c1)C(SCCNS(=O)(=O)c1ccccc1)c1ccccc1CO2 (centres undefined) ?
**Result** 1

**Query** Fill in the blank: the reported inhibition of O=C(O)c1ccc2c(c1)C(SCCNS(=O)(=O)c1ccccc1)c1ccccc1CS2 (centres undefined) is ____.
**Result** 94

**Query** Bench note: what inhibition did O=C(NCCSC1c2ccccc2COc2ccc(C(=O)O)cc21)NCc1ccccc1 (centres undefined) show?
**Result** 47

**Query** Reported inhibition, compound O=C(O)c1ccc2c(c1)C(SCCNS(=O)(=O)c1ccccc1)c1ccccc1CO2 (centres undefined) : ____
**Result** 72

**Query** Need inhibition of O=C(O)c1ccc2c(c1)C(SCCNS(=O)(=O)c1ccc3ccccc3c1)c1ccccc1CO2 (centres undefined) , thanks.
**Result** 77

**Query** What does the data say about its inhibition? Entry: O=C(O)c1ccc2c(c1)C(SCCNS(=O)(=O)c1cccc3cccnc13)c1ccccc1CO2 (centres undefined)
**Result** 44

**Query** Look at this compound and give its reported inhibition. O=C(NCCSC1c2ccccc2COc2ccc(C(=O)O)cc21)OCc1ccccc1 (centres undefined)
**Result** 79

**Query** So what's the measured inhibition for this one? O=C(O)c1ccc2c(c1)C(SCCNS(=O)(=O)c1cccc([N+](=O)[O-])c1)c1ccccc1CO2 (centres undefined)
**Result** 83

* * *

target: Thromboxane A2 receptor (Homo sapiens); assay: Binding affinity for thromboxane A2 receptor by measuring ability to displace [3H]U-46619 from guinea pig platelets at 1 uM; conditions: Cavia porcellus, target entry is the homologue from another species
Reported inhibition values follow for various compounds
Your answer is read as %, so omit the unit and give the number.

Worked cases, inhibition given:
O=C(O)c1ccc2c(c1)C(SCCNS(=O)(=O)c1ccccc1)c1ccccc1C=C2 (stereo not given); 97
CCCCCC(=O)NCCSC1c2ccccc2COc2ccc(C(=O)O)cc21 (stereo not given); 88
COc1ccc(C(=O)NCCSC2c3ccccc3COc3ccc(C(=O)O)cc32)c(OC)c1OC (stereo not given); 97
O=C(O)c1ccc2c(c1)C(SCCNS(=O)(=O)c1ccc([N+](=O)[O-])cc1)c1ccccc1CO2 (stereo not given); 90
O=C(O)c1cccc(C(SCCNS(=O)(=O)c2ccccc2)c2ccccc2)c1 (stereo not given); 85
Cc1ccc2c(c1)C(SCCNS(=O)(=O)c1ccccc1)c1ccccc1CO2 (stereo not given); 27
O=C(O)c1ccc2c(c1)C(SCCNS(=O)(=O)c1ccccc1)c1ccccc1OC2 (stereo not given); 64
O=C(O)c1ccc2c(c1)C(SCCNS(=O)(=O)c1ccccc1)c1cc(Br)ccc1CO2 (stereo not given); 94
O=C(NCCSC1c2ccccc2COc2ccc(C(=O)O)cc21)OCc1ccccc1 (stereo not given); 96

Now for a further compound.
**Query** Form field - read-out: inhibition; system: Thromboxane A2 receptor (Homo sapiens); submitted item: COc1cc(C(=O)NCCSC2c3ccccc3COc3ccc(C(=O)O)cc32)cc(OC)c1OC (stereo not given)
**Result** 87

* * *

molecular target: Thromboxane-A synthase (Homo sapiens); assay: Inhibitory activity against thromboxane A2 synthase obtained from bovine platelet microsomes at 10 uM; conditions: Bos taurus, target entry is the homologue from another species
Recorded inhibition, one value per entry.
# value in %; strip the unit string

O=C(O)c1ccc2c(c1)C(SCC/N=C(\S)NCc1ccccc1)c1ccccc1CO2 (stereo not given); 92
COc1ccc(S(=O)(=O)NCCSC2c3ccccc3COc3ccc(C(=O)O)cc32)cc1OC (stereo not given); 70
O=C(O)c1ccc2c(c1)C(SCCNS(=O)(=O)c1ccccc1)c1ccccc1OC2 (stereo not given); 53

**Query** Query (compound): O=C(O)c1ccc2c(c1)C(SCCNS(=O)(=O)c1cccs1)c1ccccc1CO2 (stereo not given) ; field requested: inhibition
**Result** 33

**Query** Need inhibition, item COc1ccc(S(=O)(=O)NCCSC2c3ccccc3COc3ccc(C(=O)O)cc32)cc1 (stereo not given)
**Result** 75

* * *

Biological target: Thromboxane A2 receptor (Homo sapiens)
Sequence (whole entry): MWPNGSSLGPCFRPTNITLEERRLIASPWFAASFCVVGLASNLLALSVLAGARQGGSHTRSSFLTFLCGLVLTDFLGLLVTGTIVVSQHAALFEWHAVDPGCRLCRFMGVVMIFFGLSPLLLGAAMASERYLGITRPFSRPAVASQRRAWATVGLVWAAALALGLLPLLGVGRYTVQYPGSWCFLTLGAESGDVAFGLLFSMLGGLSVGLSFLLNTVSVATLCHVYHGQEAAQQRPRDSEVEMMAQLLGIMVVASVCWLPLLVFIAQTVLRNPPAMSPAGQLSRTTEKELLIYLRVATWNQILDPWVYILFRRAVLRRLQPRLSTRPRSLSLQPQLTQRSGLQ
Assay: Inhibitory effect against binding thromboxane A2 receptor on guinea pig platelets using [3H]U-46619 as radioligand at 1 uM concentration
Details: Cavia porcellus, target entry is the homologue from another species
readout label: inhibition (%)
# unit: % | format: bare number

**Query** Value lookup for inhibition; key = O=C(O)c1ccc2c(c1)C(SCCNS(=O)(=O)c1ccccc1)c1ccccc1CC2 (stereo not given)
**Result** 95

**Query** Any idea what inhibition was measured for O=C(O)c1ccc2c(c1)C(SCCNS(=O)(=O)c1ccccc1)c1ccccc1C=C2 (stereo not given) ?
**Result** 97

**Query** Consider the compound O=C(O)c1ccc2c(c1)C(SCCNS(=O)(=O)c1ccc(F)cc1)c1ccccc1CO2 (stereo not given) and give its measured inhibition.
**Result** 93

* * *

# reported inhibition; entries follow
target: Thromboxane A2 receptor (Homo sapiens); test: Binding affinity for thromboxane A2 receptor by measuring ability to displace [3H]U-46619 from guinea pig platelets at 1 uM; settings: Cavia porcellus, target entry is the homologue from another species
# number only, unit % dropped from output

Sample records with inhibition:
O=C(O)c1ccc2c(c1)C(SCCNS(=O)(=O)c1ccc(C(F)(F)F)cc1)c1ccccc1CO2 (configuration not stated); 92
COc1ccc(OC)c(S(=O)(=O)NCCSC2c3ccccc3COc3ccc(C(=O)O)cc32)c1 (configuration not stated); 92
O=C(O)c1ccc2c(c1)C(SCCNC(=O)c1ccccc1)c1ccccc1CO2 (configuration not stated); 92

**Query** What does the record list as inhibition for COc1ccc(S(=O)(=O)NCCSC2c3ccccc3COc3ccc(C(=O)O)cc32)cc1OC (configuration not stated) ?
**Result** 91

**Query** Param item = CN(CCSC1c2ccccc2COc2ccc(C(=O)O)cc21)S(=O)(=O)c1ccccc1 (configuration not stated) ; retrieve measured inhibition.
**Result** 92

**Query** Record request: inhibition value, item O=C(O)c1ccc2c(c1)C(SCCNS(=O)(=O)c1ccccc1)c1ccccc1CO2 (configuration not stated)
**Result** 92

**Query** What value of inhibition has been recorded for this entry: O=C(O)c1ccc2c(c1)C(SCCNS(=O)(=O)c1cccc3cccnc13)c1ccccc1CO2 (configuration not stated)
**Result** 90

* * *

biological target: UniProtKB P21731; assay: Inhibitory effect against binding thromboxane A2 receptor on guinea pig platelets using [3H]U-46619 as radioligand at 1 uM concentration; details: Cavia porcellus, target entry is the homologue from another species
readout label: inhibition (%)
Numeric answer only, unit % assumed.

COc1ccc(OC)c(S(=O)(=O)NCCSC2c3ccccc3COc3ccc(C(=O)O)cc32)c1 (centres undefined); 92
O=C(O)c1cccc(C(SCCNS(=O)(=O)c2ccccc2)c2ccccc2)c1 (centres undefined); 85
COc1ccccc1C(=O)NCCSC1c2ccccc2COc2ccc(C(=O)O)cc21 (centres undefined); 97
O=C(NCCSC1c2ccccc2COc2ccc(C(=O)O)cc21)NCc1ccccc1 (centres undefined); 87
O=C(O)c1ccc2c(c1)C(SCCNS(=O)(=O)c1ccc([N+](=O)[O-])cc1)c1ccccc1CO2 (centres undefined); 90
O=C(O)c1ccc2c(c1)C(SCCNS(=O)(=O)c1cccnc1)c1ccccc1CO2 (centres undefined); 93
O=C(O)c1ccc2c(c1)C(SCCNS(=O)(=O)c1ccccc1)c1ccccc1OC2 (centres undefined); 64
O=C(O)COc1ccc(CCNS(=O)(=O)c2ccccc2)cc1 [SULOTROBAN]; 31

In the following, a different compound is considered.
**Query** Entry CCCCCC(=O)NCCSC1c2ccccc2COc2ccc(C(=O)O)cc21 (centres undefined) has what inhibition?
**Result** 88
